target: T1, pCD163-SRCR4-7-huFc (porcine, UniProt Q2VL90 372-818, limits assumed); experiment: SPR (Biacore 3000), antigen amine-coupled on CM5, VHH injected, pH 7.4
T1 construct: also called pCD163:SRCR4-7-Fc; pCD163-SRCR4-7-Fc; not shown: human Fc (huFc)
T1 sequence (Q2VL90 372-818 limits assumed): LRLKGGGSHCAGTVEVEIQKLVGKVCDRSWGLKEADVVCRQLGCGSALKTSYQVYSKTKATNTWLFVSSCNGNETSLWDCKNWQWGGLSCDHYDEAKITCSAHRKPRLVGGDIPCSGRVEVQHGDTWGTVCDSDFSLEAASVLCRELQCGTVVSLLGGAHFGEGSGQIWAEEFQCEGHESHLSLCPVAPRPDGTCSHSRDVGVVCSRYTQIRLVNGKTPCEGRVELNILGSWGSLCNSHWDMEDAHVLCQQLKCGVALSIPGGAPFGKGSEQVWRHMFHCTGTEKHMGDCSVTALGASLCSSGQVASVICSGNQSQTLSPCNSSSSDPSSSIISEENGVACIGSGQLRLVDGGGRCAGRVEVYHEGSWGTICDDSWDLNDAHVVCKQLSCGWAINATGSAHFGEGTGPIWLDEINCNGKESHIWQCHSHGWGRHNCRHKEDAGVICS
I'd appreciate it if you could supply kon values for the items below.
Show the value, then the unit it is measured in.

VHH 008 (1H01) (VHH, Llama single domain antibody; also called 78(#8); VHCDR3 78(#8); not shown: tags: c-myc tag in periplasmic extract (ELISA, FACS); FLAG and His tags in purified VHH (SPR, infection assays)) VHH: QVQLVESGGGLVQAGGSLRLSCAASGRTFGTYSMGWFRQAPGKEREFVAAHRWSGSAYYAEHADSVEGRFTISRDYAKNMLYLQMNSLKHEDTAVYYCAAGVGSEAQYRYWGRGTQVTVSS : 156000 M⁻¹ s⁻¹
VHH 019 (3E11) (VHH, Llama single domain antibody; also called 47(#19); VHCDR3 47(#19); not shown: tags: c-myc tag in periplasmic extract (ELISA, FACS); FLAG and His tags in purified VHH (SPR, infection assays)) VHH: QVQLQESGGGLVQVGSSLRLSCVTSGRTPSRYVMGWFRQAPGQEREFVAAISWSGRAPYADSVKGRFTISRDNAKNTVYLQMNSLKPEDTGVYYCAGGEGAIKWTTLDAYDYWGQGTQVTVSS : 487000 M⁻¹ s⁻¹
VHH 011 (2B06) (VHH, Llama single domain antibody; also called 57(#11); VHCDR3 57(#11); not shown: tags: c-myc tag in periplasmic extract (ELISA, FACS); FLAG and His tags in purified VHH (SPR, infection assays)) VHH: EVQLVESGGGLVQAGGSLRLSCAASGRTLSVYGTGWFRQAPGKEREFVAGISGTTGSTLYADSVKGRFTISRDNAKNTVYLQMNSLKSEDTALYYCAAGGRVYITTSSWAYWGQGTQVTVSS : 437000 M⁻¹ s⁻¹

# context switch: different binder, same kon
Ask | Endpoint output: kon of VHH 012 (2C07) (VHH, Llama single domain antibody; also called 41(#12); VHCDR3 41(#12); not shown: tags: c-myc tag in periplasmic extract (ELISA, FACS); FLAG and His tags in purified VHH (SPR, infection assays)) VHH: QLQLVESGGGLVQAGGSLRLSCVASGRTFSRYAMGWFRQAPGKEREFVAAIAWSTGSTYYANSVKGRFAISGDNAKNTVYLQMNSLKPEDTAVYYCAAETRYCSGFGCLDPRTYGSWGQGTQVTVSS . Value?
Reply | 2.83e+06 M⁻¹ s⁻¹
